Quick list: IC50 per entry.
- tested on: Recombinant human HDAC6 (Homo sapiens, UniProt Q9UBN7)
- Construct: full length, MW=159 kDa; GST (N); host or cells: Sf9 insect cells (baculovirus)
- Sequence (Q9UBN7 1-1215): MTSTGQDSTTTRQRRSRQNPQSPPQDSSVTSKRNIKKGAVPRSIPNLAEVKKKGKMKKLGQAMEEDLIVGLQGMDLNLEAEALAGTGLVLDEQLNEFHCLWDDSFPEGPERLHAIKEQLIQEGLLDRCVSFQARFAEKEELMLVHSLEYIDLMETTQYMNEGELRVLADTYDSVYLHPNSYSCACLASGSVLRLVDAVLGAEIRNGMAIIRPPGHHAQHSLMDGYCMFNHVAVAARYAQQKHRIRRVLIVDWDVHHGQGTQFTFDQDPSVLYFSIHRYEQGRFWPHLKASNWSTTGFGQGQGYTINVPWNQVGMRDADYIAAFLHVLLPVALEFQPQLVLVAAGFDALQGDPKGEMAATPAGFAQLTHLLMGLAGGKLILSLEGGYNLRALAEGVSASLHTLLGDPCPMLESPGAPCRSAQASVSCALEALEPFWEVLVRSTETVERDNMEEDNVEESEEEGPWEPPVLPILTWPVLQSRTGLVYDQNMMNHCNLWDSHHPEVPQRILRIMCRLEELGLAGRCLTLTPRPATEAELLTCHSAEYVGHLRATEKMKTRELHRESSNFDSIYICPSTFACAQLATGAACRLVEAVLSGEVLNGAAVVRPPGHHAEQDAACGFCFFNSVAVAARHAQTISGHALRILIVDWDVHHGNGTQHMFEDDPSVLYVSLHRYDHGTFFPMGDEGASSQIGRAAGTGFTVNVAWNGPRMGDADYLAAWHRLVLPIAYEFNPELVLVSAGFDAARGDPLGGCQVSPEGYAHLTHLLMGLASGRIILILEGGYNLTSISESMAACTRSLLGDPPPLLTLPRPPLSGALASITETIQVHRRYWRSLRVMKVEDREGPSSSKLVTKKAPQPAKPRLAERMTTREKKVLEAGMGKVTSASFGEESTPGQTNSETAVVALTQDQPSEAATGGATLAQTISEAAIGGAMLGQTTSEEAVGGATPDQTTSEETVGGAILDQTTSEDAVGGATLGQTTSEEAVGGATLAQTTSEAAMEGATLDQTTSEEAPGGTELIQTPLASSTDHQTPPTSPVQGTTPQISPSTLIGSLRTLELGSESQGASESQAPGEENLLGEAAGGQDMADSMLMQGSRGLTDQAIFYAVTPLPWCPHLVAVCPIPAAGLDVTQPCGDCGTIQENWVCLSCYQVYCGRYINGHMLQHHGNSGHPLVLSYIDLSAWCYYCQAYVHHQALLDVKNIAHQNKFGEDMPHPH
- test details: HDAC6 biochemical assay, AMC-labeled peptide substrate
- test settings: HDAC6; read-out: HDAC Isoform IC50 (nM) 6

Consider the reported IC50 for these molecules:
{"smiles repr": "COc1cnc(N(Cc2ccc(-c3noc(C(F)(F)F)n3)s2)c2cnccn2)nc1", "observed value": "≤ 1000 nM"}
{"smiles repr": "FC(F)(F)c1nc(-c2ccc(CN(c3ccccn3)c3cnccn3)s2)no1", "observed value": "≤ 500 nM"}
{"smiles repr": "Cc1ccc(N(Cc2ccc(-c3noc(C(F)(F)F)n3)s2)c2cnccn2)nn1", "observed value": "≤ 10000 nM"}
{"smiles repr": "FC(F)(F)c1nccc(N(Cc2ccc(-c3noc(C(F)(F)F)n3)s2)c2cnccn2)n1", "observed value": "≤ 10000 nM"}
{"smiles repr": "FC(F)(F)c1nc(-c2ccc(CN(c3cnccn3)c3nccc(N4CCCC4)n3)s2)no1", "observed value": "≤ 10000 nM"}

INPUT: So what's the measured IC50 for this one? FC(F)(F)c1cnnc(N(Cc2ccc(-c3noc(C(F)(F)F)n3)s2)c2cc(C(F)(F)F)cnn2)c1
OUTPUT: ≤ 500 nM

INPUT: So what's the measured IC50 for this one? FC(F)(F)c1nc(-c2ccc(CN(c3cnccn3)c3ccc(-n4cccn4)nn3)s2)no1
OUTPUT: ≤ 1000 nM

INPUT: So what's the measured IC50 for this one? N#Cc1cnnc(N(Cc2ccc(-c3noc(C(F)(F)F)n3)s2)c2cnccn2)c1
OUTPUT: ≤ 500 nM

INPUT: So what's the measured IC50 for this one? CC1(c2cnnc(N(Cc3ccc(-c4noc(C(F)(F)F)n4)s3)c3cnccn3)c2)COC1
OUTPUT: ≤ 500 nM

---

- tested on: Human HDAC5 (Homo sapiens, UniProt Q9UQL6)
- Construct: full length with C-terminal His tag, MW=51.1 kDa; His (C); host or cells: baculovirus expression system
- Sequence (Q9UQL6 656-1122 limits assumed): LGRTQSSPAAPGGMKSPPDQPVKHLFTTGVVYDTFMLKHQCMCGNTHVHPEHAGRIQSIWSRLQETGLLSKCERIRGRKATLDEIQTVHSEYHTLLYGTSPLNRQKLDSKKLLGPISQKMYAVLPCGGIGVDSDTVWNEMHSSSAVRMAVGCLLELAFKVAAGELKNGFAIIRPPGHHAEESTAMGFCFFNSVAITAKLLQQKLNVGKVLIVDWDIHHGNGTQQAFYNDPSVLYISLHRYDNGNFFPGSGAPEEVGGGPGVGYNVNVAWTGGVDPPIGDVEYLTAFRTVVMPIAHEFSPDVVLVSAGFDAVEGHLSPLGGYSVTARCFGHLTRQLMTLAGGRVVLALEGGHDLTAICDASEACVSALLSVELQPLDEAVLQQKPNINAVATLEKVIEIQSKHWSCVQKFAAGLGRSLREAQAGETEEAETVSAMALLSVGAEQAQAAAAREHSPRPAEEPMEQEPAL
- test details: HDAC5 biochemical assay, class IIa-specific substrate
- test settings: read-out: HDAC Isoform IC50 (nM) 5
endpoint name: IC50

Consider the reported IC50 for these molecules:
{"smiles repr": "FC(F)(F)c1nc(-c2ccc(CN(c3cnccn3)c3cc4nccnc4cn3)s2)no1", "observed value": "≤ 1000 nM"}
{"smiles repr": "Cc1cncc(N(Cc2ccc(-c3noc(C(F)(F)F)n3)s2)c2cc(C(F)(F)F)cnn2)n1", "observed value": "≤ 10000 nM"}
{"smiles repr": "CNC(=O)c1ccc(N(Cc2ccc(-c3noc(C(F)(F)F)n3)s2)c2cnccn2)nn1", "observed value": "≤ 500 nM"}
{"smiles repr": "FC(F)(F)c1nc(-c2ccc(CN(c3cnccn3)c3cc(CN4CCCC4)ccn3)s2)no1", "observed value": "≤ 1000 nM"}
{"smiles repr": "COc1cnc(N(Cc2ccc(-c3noc(C(F)(F)F)n3)s2)c2cnccn2)nc1", "observed value": "≤ 10000 nM"}

INPUT: So what's the measured IC50 for this one? Cc1cnc(N(Cc2ccc(-c3noc(C(F)(F)F)n3)s2)c2cnccn2)cn1
OUTPUT: ≤ 1000 nM

INPUT: So what's the measured IC50 for this one? Cc1ncncc1N(Cc1ccc(-c2noc(C(F)(F)F)n2)s1)c1cnccn1
OUTPUT: ≤ 500 nM

---

- tested on: Human HDAC7 (Homo sapiens, UniProt Q8WUI4)
- Construct: (a.a. 518-end) with N-terminal GST tag; GST (N); host or cells: baculovirus expression system
- Sequence (Q8WUI4 518-952 limits assumed): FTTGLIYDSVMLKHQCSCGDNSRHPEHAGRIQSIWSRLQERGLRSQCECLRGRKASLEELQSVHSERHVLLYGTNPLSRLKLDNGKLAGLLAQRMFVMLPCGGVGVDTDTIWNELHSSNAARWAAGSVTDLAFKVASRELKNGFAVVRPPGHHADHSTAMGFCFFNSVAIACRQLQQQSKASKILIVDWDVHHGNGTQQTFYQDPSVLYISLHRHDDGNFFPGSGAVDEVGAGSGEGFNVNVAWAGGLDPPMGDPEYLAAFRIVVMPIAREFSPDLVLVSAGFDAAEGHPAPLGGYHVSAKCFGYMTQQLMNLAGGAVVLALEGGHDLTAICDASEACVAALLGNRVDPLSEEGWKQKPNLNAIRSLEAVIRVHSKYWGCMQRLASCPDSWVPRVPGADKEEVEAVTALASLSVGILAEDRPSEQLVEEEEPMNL
- test details: HDAC7 biochemical assay, class IIa-specific substrate
- test settings: read-out: HDAC Isoform IC50 (nM) 7
Quick list: IC50 per entry.

Consider the reported IC50 for these compounds:
{"compound": "Nc1cnnc(N(Cc2ccc(-c3noc(C(F)(F)F)n3)s2)c2cnccn2)c1", "IC50": "≤ 500 nM"}
{"compound": "FC(F)(F)c1nc(-c2ccc(CN(c3cnccn3)c3nccnn3)s2)no1", "IC50": "≤ 1000 nM"}
{"compound": "CC(c1ccc(-c2noc(C(F)(F)F)n2)s1)N(c1cnccn1)c1cnccn1 (stereo not shown)", "IC50": "≤ 1000 nM"}
{"compound": "FC(F)(F)c1nc(-c2ccc(CN(c3cnccn3)c3ncccc3N3CCOCC3)s2)no1", "IC50": "≤ 10000 nM"}
{"compound": "FC(F)(F)c1nc(-c2ccc(CN(c3ccncc3)c3cnccn3)s2)no1", "IC50": "≤ 500 nM"}
{"compound": "FC(F)(F)c1cnc(N(Cc2ccc(-c3noc(C(F)(F)F)n3)s2)c2cnccn2)cn1", "IC50": "≤ 10000 nM"}

Could you now consider this next compound?
INPUT: So what's the measured IC50 for this one? Cc1cc(C)nc(N(Cc2ccc(-c3noc(C(F)(F)F)n3)s2)c2cnccn2)n1
OUTPUT: > 10000 nM

---

- tested on: Human HDAC9 (Homo sapiens, UniProt Q9UKV0)
- Construct: amino acids 604-1066 with C-terminal His tag; His (C); host or cells: baculovirus expression system
- Sequence (Q9UKV0 604-1066 isoform Q9UKV0-5): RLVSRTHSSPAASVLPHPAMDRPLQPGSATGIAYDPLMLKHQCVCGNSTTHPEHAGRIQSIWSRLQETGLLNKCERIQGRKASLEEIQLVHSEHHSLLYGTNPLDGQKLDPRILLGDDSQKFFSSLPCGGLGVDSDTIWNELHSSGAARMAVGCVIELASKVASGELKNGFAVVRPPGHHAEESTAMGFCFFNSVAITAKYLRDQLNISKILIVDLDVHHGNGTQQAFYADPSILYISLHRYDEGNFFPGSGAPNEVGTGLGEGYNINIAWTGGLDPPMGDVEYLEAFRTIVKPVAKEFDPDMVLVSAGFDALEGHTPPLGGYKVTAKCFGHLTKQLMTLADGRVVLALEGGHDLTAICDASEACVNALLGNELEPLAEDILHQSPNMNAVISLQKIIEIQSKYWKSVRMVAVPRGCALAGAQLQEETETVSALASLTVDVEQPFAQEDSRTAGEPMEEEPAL
- test details: HDAC9 biochemical assay, class IIa-specific substrate
- test settings: read-out: HDAC Isoform IC50 (nM) 9
endpoint name: IC50

Consider the reported IC50 for these molecules:
{"molecule": "FC(F)(F)c1nc(-c2ccc(CN(c3cnccn3)c3cnc(-c4ccco4)cn3)s2)no1", "observed value": "≤ 10000 nM"}
{"molecule": "FC(F)(F)c1ccc(N(Cc2ccc(-c3noc(C(F)(F)F)n3)s2)c2cnccn2)nc1", "observed value": "≤ 10000 nM"}
{"molecule": "CC(c1ccc(-c2noc(C(F)(F)F)n2)s1)N(c1cnccn1)c1cnccn1 (stereo not drawn)", "observed value": "≤ 10000 nM"}
{"molecule": "FC(F)(F)c1nc(-c2ccc(CN(c3ccncc3)c3cnccn3)s2)no1", "observed value": "≤ 1000 nM"}
{"molecule": "Cn1cc(-c2ccc(N(Cc3ccc(-c4noc(C(F)(F)F)n4)s3)c3cnccn3)nn2)cn1", "observed value": "≤ 10000 nM"}
{"molecule": "CC(C)(O)c1cnnc(N(Cc2ccc(-c3noc(C(F)(F)F)n3)s2)c2cnccn2)c1", "observed value": "≤ 10000 nM"}

INPUT: Provide the documented IC50 with Human HDAC9 (Homo sapiens, UniProt Q9UKV0) as the system for FC(F)(F)c1cnnc(N(Cc2ccc(-c3noc(C(F)(F)F)n3)s2)c2ccc(C(F)(F)F)nn2)c1
OUTPUT: > 10000 nM

INPUT: Provide the documented IC50 with Human HDAC9 (Homo sapiens, UniProt Q9UKV0) as the system for CC(=O)Nc1cnnc(N(Cc2ccc(-c3noc(C(F)(F)F)n3)s2)c2cnccn2)c1
OUTPUT: ≤ 10000 nM

INPUT: Provide the documented IC50 with Human HDAC9 (Homo sapiens, UniProt Q9UKV0) as the system for O=C(c1ccc(N(Cc2ccc(-c3noc(C(F)(F)F)n3)s2)c2cnccn2)nn1)N1CCCCC1
OUTPUT: ≤ 1000 nM

INPUT: Provide the documented IC50 with Human HDAC9 (Homo sapiens, UniProt Q9UKV0) as the system for O=C(O)c1cnnc(N(Cc2ccc(-c3noc(C(F)(F)F)n3)s2)c2cnccn2)c1
OUTPUT: ≤ 10000 nM

INPUT: Provide the documented IC50 with Human HDAC9 (Homo sapiens, UniProt Q9UKV0) as the system for FC(F)(F)c1nc(-c2ccc(CN(c3cnccn3)c3nccc4cnccc34)s2)no1
OUTPUT: ≤ 500 nM

INPUT: Provide the documented IC50 with Human HDAC9 (Homo sapiens, UniProt Q9UKV0) as the system for Cc1ncc(N(Cc2ccc(-c3noc(C(F)(F)F)n3)s2)c2cnccn2)nc1C
OUTPUT: ≤ 10000 nM

INPUT: Provide the documented IC50 with Human HDAC9 (Homo sapiens, UniProt Q9UKV0) as the system for Cc1cnc(N(Cc2ccc(-c3noc(C(F)(F)F)n3)s2)c2cnccn2)c(C)n1
OUTPUT: ≤ 1000 nM

INPUT: Provide the documented IC50 with Human HDAC9 (Homo sapiens, UniProt Q9UKV0) as the system for FC(F)(F)c1cncc(N(Cc2ccc(-c3noc(C(F)(F)F)n3)s2)c2cnccn2)c1
OUTPUT: ≤ 10000 nM

INPUT: Provide the documented IC50 with Human HDAC9 (Homo sapiens, UniProt Q9UKV0) as the system for O=C(O)c1cnnc(N(Cc2ccc(-c3noc(C(F)(F)F)n3)s2)c2cc(C(F)(F)F)cnn2)c1
OUTPUT: > 10000 nM
